Below: a set of entries, each annotated with reported growth inhibition.
- Method Description: NCI Yeast Anticancer Drug Screen. Data for the wt2 strain (AID 169);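 also: 0% = growth of vehicle-treated yeast cultures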
- Test Context: S. cerevisiae wt2 strain growth inhibition; at 1.2 µM; stronger effect = higher value
About 79,000 compounds went through this panel and 15% of them were active in at least one assay; those are over-represented in the sample as a whole.
Metric Name: growth inhibition (%)

compound=OB(O)c1ccccc1C#Cc1ccccc1 recorded_measurement=-2
compound=CCCCCCCC/C=C\CCCCCCCCN recorded_measurement=-7
compound=Cc1ccc(S(=O)(=O)NC(=O)C2C(=O)CC3(CCCCC3)CC2=O)cc1 recorded_measurement=-39
compound=O=C(O)c1c2ccc(Cl)cc2nc2[nH]c(=O)[nH]c(=O)c12 recorded_measurement=-30
compound="CC(/C=C/c1ccc([N+](=O)[O-])o1)=N/N1CC(CN2CCOCC2)OC1=O (configuration not stated)" recorded_measurement=-3
compound=O=[N+]([O-])c1cc(Cl)ccc1S(=O)(=O)c1ccc(Cl)cc1[N+](=O)[O-] recorded_measurement=0
compound=CCOC(=O)/C(=C\c1ccc(F)cc1)C(C)=O recorded_measurement=-35
compound=CCCCCCCCCCCCOCCOCCOCC(N)=O recorded_measurement=-26
compound="C/C1=C/C2OC(=O)C3(C)C2C(CC2(C)OC1=CC2=O)OC3(O)C(C)C (configuration not stated)" recorded_measurement=8
compound=CC(=O)N1C=Cc2c(c(C)c3c([nH]c4ccccc43)c2C)C1 recorded_measurement=10
compound=COC(=O)c1ccccc1N=NNc1cccc(SC)c1 recorded_measurement=-11
compound="O=S(=O)(NC1CCCC(c2ccccc2)C1)c1ccccc1 (configuration not stated)" recorded_measurement=-4
compound=CC(=O)/C=C/c1cc([N+](=O)[O-])ccc1O recorded_measurement=-31
compound="O=S(=O)(c1cccc(C(F)(F)F)c1)N1c2ccccc2-n2cccc2C1c1cccnc1 (configuration not stated)" recorded_measurement=-23
compound="C/C(=N\\OCC(O)CNCCSCc1ccccc1)c1ccccc1Cl (configuration not stated)" recorded_measurement=-1
compound=CN1CCN(C(=O)c2cccc3cccc(C(=O)O)c23)CC1 recorded_measurement=-6
compound="CCCCCCCSCC1C(=O)C23C(O)C1CCC2C12COC3(O)C(O)C1C(C)(C)CCC2O (configuration not stated)" recorded_measurement=14
compound=CC(C)OP(=O)(OC(C)C)/C(Cl)=N/Nc1ccc([N+](=O)[O-])cc1 recorded_measurement=3
compound=S=C1C(=Nc2ccccc2)N(c2ccccc2)/C(=N\c2ccccn2)N1c1ccccc1 recorded_measurement=-4
compound=O=[N+]([O-])c1ccc2nc(=S)[nH]n2c1 recorded_measurement=-2
compound=CC1(C)CC(=O)C(C(=O)Nc2cccs2)=C(O)C1 recorded_measurement=4
compound=N#Cc1nc(Nc2ccc(Cl)cc2)sc1N recorded_measurement=-20

###

As shown below, each of these compounds has a reported growth inhibition value.
- Method Description: NCI Yeast Anticancer Drug Screen. Data for the rad18 strain (AID 177)
- Test Context: S. cerevisiae rad18 mutant growth inhibition; at 1.2 µM; stronger effect = higher value
Compounds without any hit were thinned out: in the full panel of roughly 79,000, 15% have a hit.
Metric Name: growth inhibition (%)

smiles_str=Cc1ccnc2c(O)cccc12 recorded_measurement=-3
smiles_str=Oc1ccc(C2(c3ccc(O)cc3)CCCC2)cc1 recorded_measurement=-11
smiles_str=CC(C)(C)c1ccc2c(c1)C(=O)c1ccccc1C2=O recorded_measurement=-11

###

- Method Description: NCI Yeast Anticancer Drug Screen. Data for the rad50 strain (AID 155);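 also: 0% = growth of vehicle-only cultures of the same strain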
- Test Context: S. cerevisiae rad50 strain growth inhibition; at 3.7 µM; stronger effect = higher value
Compounds without any hit were thinned out: in the full panel of roughly 79,000, 15% have a hit.
growth inhibition values for the compounds below.
Metric Name: growth inhibition (%)

compound="COC(=O)C(Cc1c[nH]c2ccccc12)N1CN(C)c2ccccc2C1=O (stereo unspecified)" unit_abbreviation=% recorded_measurement=2
compound=CN(C)CCNC(=Cc1ccc2ccccc2[n+]1C)NCCN(C)C unit_abbreviation=% recorded_measurement=1
compound=CCOP(=O)(OCC)/C(C#N)=C\c1cccc2ccccc12 unit_abbreviation=% recorded_measurement=1
compound=S=C1N(c2ccc(Cl)cc2)C2=C(N=Nc3ccccc3)C(=Nc3ccccc3S2)N1c1ccccn1 unit_abbreviation=% recorded_measurement=12
compound=Cc1ccc(C)c(C(=N)c2ccccc2Cc2ccccc2)c1 unit_abbreviation=% recorded_measurement=7
compound=CC(C)(C)c1ccc2c(c1)C(=O)c1ccccc1C2=O unit_abbreviation=% recorded_measurement=-18
compound="CC1=NN(C(=O)CC(=O)NC(=O)/C=C\\c2ccccc2)C(=O)C1N=Nc1ccc([N+](=O)[O-])cc1 (stereo unspecified)" unit_abbreviation=% recorded_measurement=-10
compound=O=[N+]([O-])[O][Sn]([O][Sn]([O][N+](=O)[O-])([c]1ccccc1)[c]1ccccc1)([c]1ccccc1)[c]1ccccc1 unit_abbreviation=% recorded_measurement=20
compound=CCCCS(=O)(=O)Nc1ccc(Nc2c3ccccc3nc3ccccc23)c(OC)c1 unit_abbreviation=% recorded_measurement=78
compound=O=C(C#Cc1ccccc1)Nc1ccccc1 unit_abbreviation=% recorded_measurement=-25
compound=c1cc(-c2sc(-c3ccncc3)c(-c3ccncc3)c2-c2ccncc2)ccn1 unit_abbreviation=% recorded_measurement=19
compound=O=[N+]([O-])c1ccc2[nH]c3c(-c4ccccc4)nccc3c2c1 unit_abbreviation=% recorded_measurement=2
compound=O=C(c1cc(=O)c2ccc(O)cc2o1)c1ccc(Cl)cc1Cl unit_abbreviation=% recorded_measurement=-16
compound=COc1cc([N+](=O)[O-])c2ncccc2c1Br unit_abbreviation=% recorded_measurement=12
compound=NNc1ccccc1-c1nc2ccccc2[nH]1 unit_abbreviation=% recorded_measurement=5
compound="CC1CCC(C2=CSC3CCCCC3N2)CC1 (stereo unspecified)" unit_abbreviation=% recorded_measurement=23
compound="CC(=O)/C(=C\\c1ccc(Cl)c(Cl)c1)C(=O)C(C)CN(C)C (stereo unspecified)" unit_abbreviation=% recorded_measurement=22
compound=c1c[nH]c(CN2CCN(Cc3ncc[nH]3)CC2)n1 unit_abbreviation=% recorded_measurement=93
compound="CC1=CN2C(c3ccccc3)=NON(c3ccc(C)cn3)C2C=C1 (stereo unspecified)" unit_abbreviation=% recorded_measurement=2
compound=CCCCCCCCSC1=C(Cl)C(=O)C(OC)=C(OC)C1=O unit_abbreviation=% recorded_measurement=-16
compound=CCCCCCC=C(C(=O)OCC)C(=O)OCC unit_abbreviation=% recorded_measurement=-3
compound="COc1cc(C2C3=C(COC3=O)Oc3cc4c(cc32)OCO4)cc(OC)c1O (stereo unspecified)" unit_abbreviation=% recorded_measurement=88
compound=c1ccc([P+](CCN2Cc3ccccc3C2)(c2ccccc2)c2ccccc2)cc1 unit_abbreviation=% recorded_measurement=64
compound=CSC(=S)N/N=C/c1ccccc1 unit_abbreviation=% recorded_measurement=57
compound=O=c1[nH]c2c([N+](=O)[O-])cccc2c2ccccc12 unit_abbreviation=% recorded_measurement=-42
compound=Cc1cc(C)c2[s+]snc2c1 unit_abbreviation=% recorded_measurement=1
compound=Oc1ccc(C2(c3ccc(O)cc3)CCCC2)cc1 unit_abbreviation=% recorded_measurement=4
compound="CC(C)(CN1CCCCC1)C(=O)CC(SCCS(=O)(=O)O)c1ccccc1 (stereo unspecified)" unit_abbreviation=% recorded_measurement=4
compound=Cc1ccc(S(=O)(=O)Nc2cccc3cccnc23)cc1 unit_abbreviation=% recorded_measurement=25
compound=CCC(/C=C/c1ccccc1)=N\Nc1ccc(Cl)c(Cl)c1 unit_abbreviation=% recorded_measurement=36
compound=CNCC(C)CNC unit_abbreviation=% recorded_measurement=-14

###

- Method Description: NCI Yeast Anticancer Drug Screen. Data for the CLN2oe strain (AID 163);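 also: 0% = growth of vehicle-only control cultures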
- Test Context: S. cerevisiae CLN2oe strain, at 1.2 µM, stronger effect = higher value
The panel holds about 79,000 compounds, 15% with a hit somewhere; the sample as a whole holds those more often.
Metric Name: growth inhibition (%)

compound="O=C1C(CCSc2ccccc2)C(=O)N(c2ccccc2)C1c1ccccc1 (stereo not drawn)" unit_abbreviation=% recorded_measurement=-8
compound=O=C(C#Cc1ccccc1)/C=C/c1ccccc1 unit_abbreviation=% recorded_measurement=-7
compound=CC1CCN(CCC(=O)c2ccc([N+](=O)[O-])cc2)CC1 unit_abbreviation=% recorded_measurement=2

###

- Method Description: NCI Yeast Anticancer Drug Screen. Data for the rad50 strain (AID 155);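 also: 0% = growth of vehicle-only cultures of the same strain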
- Test Context: S. cerevisiae rad50 strain growth inhibition; at 33.0 µM; stronger effect = higher value
About 79,000 compounds went through this panel and 15% of them were active in at least one assay; those are over-represented in the sample as a whole.
Entry class follows growth inhibition: A: < 10%; B: ≥ 10% and < 70%; C: ≥ 70%

compound="O=C(O)c1ccccc1C(=O)OC1CCc2ccccc2C1 (centres undefined)" group=B
compound=O=C(O)C(=Cc1ccc(-c2ccccc2)cc1)C(=O)O group=B
compound="COC(=O)C1CCCCC1C(=O)Nc1ccccc1 (centres undefined)" group=A
compound=CC1=NN(C(=O)c2ccccc2O)C(=O)/C1=C/c1ccco1 group=C
compound=Cc1c2cc[n+](CCO)cc2c(C)c2c1[nH]c1ccc(O)cc12 group=C
compound=OB(O)c1ccccc1C#Cc1ccccc1 group=B
compound="CC12CCC(CC(=O)/C1=C(/Br)I)C2(C)C (centres undefined)" group=B
compound=COc1ccc2cc3c4cc5c(cc4cc[n+]3cc2c1OC)OCO5 group=C
compound=COC(=O)C(=O)CC(=O)c1cccc(OC)c1 group=B
compound="[N-]=[N+]=NC1(c2ccccc2)C(=O)Nc2ccccc2C1=O (centres undefined)" group=B
compound=Cc1ccc(Nc2n[nH]c(=S)s2)c(C)c1 group=B
compound=CSC(=S)N/N=C/c1ccccc1 group=C
compound=CCN(CC)CCCNc1ccc([N+](=O)[O-])c2nc3ccc(OC)cc3c(NCCCN(CC)CC)c12 group=A
compound=CC(=O)NC(c1nc2cc(C)c(C)cc2[nH]1)c1nc2cc(C)c(C)cc2[nH]1 group=B
compound="CCCCCCCCCCCCCCCCCCNc1nc(=O)n(C2CC(OP(=O)(O)OCC3OC(n4cc(F)c(=O)[nH]c4=O)CC3O)C(CO)O2)cc1F (centres undefined)" group=B
compound=CCCNCC(=O)O[C@]1(CC)C(=O)OCc2c1cc1n(c2=O)Cc2cc3ccccc3nc2-1 group=C
compound=CCCCCCC=C(C(=O)OCC)C(=O)OCC group=A
compound=CCCCN(CCCC)c1ccc(N=Nc2ccc(S(=O)(=O)O)cc2)cc1 group=C
compound="COc1ccc(C(C)c2cc3c(cc2OCC(C)=O)OCO3)cc1 (centres undefined)" group=A
compound=CNCC(C)CNC group=A
compound=COc1ccccc1NC(=O)c1ccc(Cl)cc1 group=A
compound=Cc1ccc([N+](=O)[O-])c2c(NCCC[N+](C)(C)[O-])c3ccccc3nc12 group=B
compound=CCOC(=O)Nc1ccc(C)c(NC(=O)OCC)c1 group=B
compound=COc1ccc2nc3cccc([N+](=O)[O-])c3c(NCCCCCC(=O)O)c2c1 group=C
compound=O=C(Cc1ccccc1)NNc1nc(NNC(=O)c2ccncc2)nc(Nc2ccc(Cl)cc2)n1 group=A
compound=COc1ccc(-c2cc(-c3cc(C)cc(Cl)c3O)nc3[nH]c(=S)[nH]c(=S)c23)cc1 group=B
compound="O=CC1(F)CC1(c1ccccc1)c1ccccc1 (centres undefined)" group=A
compound="Cc1cccc2c1C1c3c(C)cccc3C(CC(=O)O)CC1CC2 (centres undefined)" group=C
compound="CC(=O)/C(=C\\c1ccc(Cl)c(Cl)c1)C(=O)C(C)CN(C)C (centres undefined)" group=B
compound=CN(C)CC(CN(C)C)C(=O)/C=C/c1ccc(Cl)cc1Cl group=C
compound="O=NC1c2cccc3cccc(c23)C1N=O (centres undefined)" group=C
compound=CCN(CC)C(=S)SC(=S)N(CC)CC group=C

Measured values drawn from PubChem BioAssay (NCI) for this set.
